Source listed as paper PMC6316600.

# target of assay: human ASIC3 (Homo sapiens)
# Construct: host or cells: Xenopus laevis oocytes (cRNA injection)
# Sequence (Q9UHC3 1-531): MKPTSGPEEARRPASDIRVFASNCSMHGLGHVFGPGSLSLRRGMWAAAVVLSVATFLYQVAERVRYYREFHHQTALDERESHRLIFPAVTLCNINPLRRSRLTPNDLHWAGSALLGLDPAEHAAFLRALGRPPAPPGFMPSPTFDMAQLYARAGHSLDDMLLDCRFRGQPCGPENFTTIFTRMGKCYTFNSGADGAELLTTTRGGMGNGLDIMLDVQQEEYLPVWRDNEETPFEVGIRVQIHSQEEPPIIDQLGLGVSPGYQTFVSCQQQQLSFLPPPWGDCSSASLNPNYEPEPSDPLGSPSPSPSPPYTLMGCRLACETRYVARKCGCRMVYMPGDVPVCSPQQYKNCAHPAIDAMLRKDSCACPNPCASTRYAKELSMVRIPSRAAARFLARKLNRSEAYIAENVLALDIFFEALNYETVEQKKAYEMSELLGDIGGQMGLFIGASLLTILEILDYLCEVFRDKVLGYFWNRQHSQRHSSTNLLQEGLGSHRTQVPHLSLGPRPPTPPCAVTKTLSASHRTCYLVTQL
# experiment: Inhibition of transient hASIC3 current, two-electrode voltage clamp, Xenopus laevis oocytes
# Type: cell-based
Bridge positions count the residues as written; N and C are the ends. Ends that are not written are not given here.
property label: IC50
Answer format reminder: number followed by unit.

In: // fetch human ASIC3 (Homo sapiens) IC50 for GTACSCGNSKGIYWFYRPSCPTDRGYTGSCRYFLGTCCTPAD (disulfide 4-37, 6-30, 20-38) [APETx2]
Out: 344 nM
